Biological target: Zap1 (UniProt P47043)
Sequence: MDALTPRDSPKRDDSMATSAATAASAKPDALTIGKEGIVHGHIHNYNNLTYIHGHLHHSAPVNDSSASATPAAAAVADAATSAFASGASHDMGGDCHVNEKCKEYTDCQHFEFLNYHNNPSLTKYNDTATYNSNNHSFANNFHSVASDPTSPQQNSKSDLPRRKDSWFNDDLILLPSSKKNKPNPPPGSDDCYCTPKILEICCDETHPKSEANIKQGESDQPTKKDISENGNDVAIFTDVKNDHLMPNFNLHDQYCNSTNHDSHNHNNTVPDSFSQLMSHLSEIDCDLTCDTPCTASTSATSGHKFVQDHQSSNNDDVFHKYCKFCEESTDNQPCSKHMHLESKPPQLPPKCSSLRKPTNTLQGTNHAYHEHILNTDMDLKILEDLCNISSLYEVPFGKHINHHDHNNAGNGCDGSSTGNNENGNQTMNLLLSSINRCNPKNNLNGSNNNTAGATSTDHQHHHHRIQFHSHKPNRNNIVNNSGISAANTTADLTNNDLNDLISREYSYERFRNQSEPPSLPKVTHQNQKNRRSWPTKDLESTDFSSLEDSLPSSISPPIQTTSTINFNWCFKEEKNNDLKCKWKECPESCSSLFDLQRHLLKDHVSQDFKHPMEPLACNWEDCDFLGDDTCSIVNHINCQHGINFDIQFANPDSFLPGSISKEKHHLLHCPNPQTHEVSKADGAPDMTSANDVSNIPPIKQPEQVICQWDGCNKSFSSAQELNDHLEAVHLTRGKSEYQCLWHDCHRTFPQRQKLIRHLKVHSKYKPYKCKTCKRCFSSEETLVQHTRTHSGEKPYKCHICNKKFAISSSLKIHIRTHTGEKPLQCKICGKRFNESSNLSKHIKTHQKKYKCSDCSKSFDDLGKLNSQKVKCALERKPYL
Test: PBM E-score (8-mer binding enrichment) (E-score (-0.5 to 0.5)); higher = stronger / more preferred TF binding
Settings: protein concentration: 200 nM; construct: GST-full length
In all, about 33,000 sequences were measured (“E-score (-0.5 to 0.5)”: median about -0.021, highest 2% from about 0.32 on). The entries come from a sample that favours the highest values as a whole.
METRIC: PBM E-score
Format: numeric value only, no unit, no commentary.

Qu. Value lookup for PBM E-score; key = ACAACCCG
Ans. 0.398

Qu. Entry CCGTTACA : reported PBM E-score = ?
Ans. 0.061

Qu. Requested read-out: PBM E-score. Entry: GCGACACC
Ans. 0.0184

Qu. I am curious: what PBM E-score value has been reported for TCGTTACA ?
Ans. -0.024

Qu. Tell me the measured PBM E-score of GGGTTACA , please.
Ans. 0.468

Qu. Any idea what its PBM E-score is? The sequence is GCGTTACA
Ans. 0.126

Qu. Given the entry GGTTTACA , report its measured PBM E-score.
Ans. 0.17

Qu. Bench note: what PBM E-score did GCGTTACC show?
Ans. 0.0732

Qu. # input sequence: CGTACTTC ; wanted: its PBM E-score
Ans. -0.125

Qu. State the recorded PBM E-score for this entry: AGGTGCAA
Ans. 0.0924

Qu. Would you kindly share the measured PBM E-score for ACAACCGT ?
Ans. 0.0867

Qu. What value of PBM E-score has been recorded for this entry: AGAACCCC
Ans. 0.294

Qu. Quick check: PBM E-score of CTCAGCAG ?
Ans. -0.129

Qu. GET /values?readout=PBM E-score&item= ACGGATGG
Ans. -0.0981

Qu. Name the reported PBM E-score value associated with the sequence GAGTTACC
Ans. 0.3

Qu. Item CTGTTACA has what recorded PBM E-score?
Ans. 0.0543
